Tested on: 922993-354-T-J3-PDC complex spheroid viability;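 note: spheroids exposed to the agents for one week; 100% = DMSO vehicle control wells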
Test: Anticancer human tumor 922993-354-T-J3-PDC patient-derived endometrial carcinoma cell line growth inhibition [POLQ]
Details: second compound 0.1 µM; first compound 0.00316 µM; stronger effect = lower value
Observable: viability, T/C (%)
Give bare numbers, in %.

* Cn1ncnc1[C@H]1c2n[nH]c(=O)c3cc(F)cc(c23)N[C@@H]1c1ccc(F)cc1 + COC1C(OC(N)=O)C(O)C(Oc2ccc3c(O)c(NC(=O)c4ccc(O)c(CC=C(C)C)c4)c(=O)oc3c2C)OC1(C)C | 105

Would you mind listing viability, T/C for each of the following compounds?
1. CC[C@@]1(O)C(=O)OCc2c1cc1n(c2=O)Cc2cc3c(CN(C)C)c(O)ccc3nc2-1 + Cc1cccc(N(C)C(=O)C2C(O)CCN2c2nc(C)cc(C(F)(F)F)c2C#N)c1
2. CCc1c2c(nc3ccc(O)cc13)-c1cc3c(c(=O)n1C2)COC(=O)[C@]3(O)CC + COC1C(OC(N)=O)C(O)C(Oc2ccc3c(O)c(NC(=O)c4ccc(O)c(CC=C(C)C)c4)c(=O)oc3c2C)OC1(C)C
3. COc1cccc(OCCCN)c1-c1cc(Nc2cnc(C#N)cn2)n[nH]1 + COC1C(OC(N)=O)C(O)C(Oc2ccc3c(O)c(NC(=O)c4ccc(O)c(CC=C(C)C)c4)c(=O)oc3c2C)OC1(C)C
4. C=CCn1c(=O)c2cnc(Nc3ccc(N4CCN(C)CC4)cc3)nc2n1-c1cccc(C(C)(C)O)n1 + Cc1cccc(N(C)C(=O)C2C(O)CCN2c2nc(C)cc(C(F)(F)F)c2C#N)c1

## Output
103
85.7
99.6
105
